test system: Pseudomonas aeruginosa ATCC 8689; assay: MIC against bacteria (Table I), strain (4); format: cell-based; conditions: ATCC8689; (4) Pseudomonas aeruginosa ATCC 8689; read-out: MIC
Measure Name: MIC (µg/mL)
Report only the number, with the unit µg/mL understood.

• Cc1nc(SCC2=C(C(=O)O)N3C(=O)[C@@H](NC(=O)[C@H](NC(=O)c4cnccc4O)c4ccccc4)[C@H]3SC2)sc1SCC(=O)O = 12.5

In the following, a different molecule is considered.
Query: Recorded MIC for O=C(O)Cc1nnc(SCC2=C(C(=O)O)N3C(=O)[C@@H](NC(=O)[C@H](NC(=O)c4cnccc4O)c4ccccc4)[C@H]3SC2)s1 with Pseudomonas aeruginosa ATCC 8689, please?
Response: 12.5

Origin of measurements: patent US4068074A
